Origin of measurements: patent US7557110B2

Target: MAPKAP-K2 (Homo sapiens)
Sequence (P49137 whole entry): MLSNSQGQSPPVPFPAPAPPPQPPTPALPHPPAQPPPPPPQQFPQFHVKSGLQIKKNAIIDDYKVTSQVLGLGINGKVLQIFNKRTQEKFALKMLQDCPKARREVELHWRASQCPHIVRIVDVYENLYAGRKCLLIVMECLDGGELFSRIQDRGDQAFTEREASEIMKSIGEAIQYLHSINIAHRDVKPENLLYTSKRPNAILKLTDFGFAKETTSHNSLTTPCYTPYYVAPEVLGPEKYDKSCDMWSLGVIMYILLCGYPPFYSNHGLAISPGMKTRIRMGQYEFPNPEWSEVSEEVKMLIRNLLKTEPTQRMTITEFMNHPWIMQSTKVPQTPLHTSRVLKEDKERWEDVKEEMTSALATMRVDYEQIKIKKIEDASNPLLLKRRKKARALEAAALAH
Experiment: MAPKAP-K2 enzyme activity inhibition (33P-ATP filter plate kinase assay); further: key: +: active; ++: more active; +++: very active
Format: biochemical
Conditions: MAPKAP-K2 inhibitory activity; assays conducted at typically 1-100 μM
observed-property: activity (efficacy against MAPKAP-K2)

Take a look at these entries with their results.
| compound | target-of-assay | activity (efficacy against MAPKAP-K2) |
| --- | --- | --- |
| Cc1c(N[C@H]2CC[C@H](N)CC2)nc2ccnn2c1Nc1ccc(-c2ccccc2Cl)cc1 [Compound 313] | MAPKAP-K2 (Homo sapiens) | ++ |
| Cc1c(N[C@H]2CC[C@H](N)CC2)nc2ccnn2c1Nc1ccc(OC(C)C)cc1 [Compound 197] | MAPKAP-K2 (Homo sapiens) | +++ |
| CCOc1ccc(-c2ccc(Nc3c(C)c(N[C@H]4CC[C@H](N)CC4)nc4ccnn34)cc2)cc1 [Compound 356] | MAPKAP-K2 (Homo sapiens) | +++ |
| Cc1c(NC2CCC(N)CC2)nc2ccnn2c1Nc1ccc(OCC2CCCO2)cc1 (centres unmarked) [Compound 256] | MAPKAP-K2 (Homo sapiens) | +++ |

Dear colleague, could you please provide activity (efficacy against MAPKAP-K2) for the compounds listed below?
1. N[C@H]1CC[C@H](Nc2cc(NCc3cccc(Cl)c3)n3ncc(I)c3n2)CC1 [Compound 297]
2. CCOc1ccc(Nc2c(C(C)C)c(N[C@H]3CC[C@H](N)CC3)nc3ccnn23)cc1 [Compound 114]
3. CCOc1cccc(Nc2c(CC)c(N[C@H]3CC[C@H](N)CC3)nc3ccnn23)c1 [Compound 61]
4. CCc1c(N[C@H]2CC[C@H](N)CC2)nc2ccnn2c1Nc1ccc(Oc2ccccc2)cc1 [Compound 33]

1: ++; 2: +++; 3: +++; 4: +++
